Target: Aβ1-40 (Homo sapiens)
Sequence (P05067 672-711): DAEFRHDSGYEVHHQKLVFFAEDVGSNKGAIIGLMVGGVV
Assay: Seeded extension assay (thioflavin T fluorescence)
Type: biochemical
Parameters: Natural β-AP (β-AP1-40) was obtained commercially from Bachem (Torrance, Calif.); purchased Bachem (Torrance, Calif.)
Settings: Table V; 25 mole % inhibitor
Method: The seeded extension assay can be employed to measure the rate of Aβ fiber formed in a solution of Aβ monomer following addition of polymeric Aβ fiber "seed". The ability of test compounds to prevent further deposition of monomeric Aβ to previously deposited amyloid is determined using a direct indicator of β-sheet formation using fluorescence. […]
Peptide text beside a SMILES is read from it. * marks the point of attachment. Cholyl = C[C@H](CCC(=O)*)[C@H]1CC[C@H]2[C@@H]3[C@H](O)C[C@@H]4C[C@H](O)CC[C@]4(C)[C@H]3C[C@H](O)[C@]12C
reported.endpoint: % Iext'n (percent reduction of thioflavin-T fluorescence)
Please report the result as a number followed by the unit.

Enquiry: Value lookup for % Iext'n (percent reduction of thioflavin-T fluorescence); key = CC(C)C[C@H](NC(=O)[C@@H](NC(=O)[C@H](Cc1ccccc1)NC(=O)[C@H](CCCCN)NC(=O)[C@H](Cc1ccccc1)NC(=O)CC[C@@H](C)[C@H]1CC[C@H]2[C@@H]3[C@H](O)C[C@@H]4C[C@H](O)CC[C@]4(C)[C@H]3C[C@H](O)[C@]12C)C(C)C)C(=O)O [PPI-372] (Cholyl-FKFVL-OH)
Return: 37%

Enquiry: Value lookup for % Iext'n (percent reduction of thioflavin-T fluorescence); key = CC(C)C[C@H](NC(=O)CC[C@@H](C)[C@H]1CC[C@H]2[C@@H]3[C@H](O)C[C@@H]4C[C@H](O)CC[C@]4(C)[C@H]3C[C@H](O)[C@]12C)C(=O)N[C@H](C(=O)N[C@@H](Cc1ccccc1)C(=O)N[C@@H](Cc1ccccc1)C(=O)N[C@@H](C)C(=O)O)C(C)C [PPI-368, cholyl-Aβ17-21]
Return: 91%

###

Target: Aβ1-40 (Homo sapiens)
Experiment: Seeded extension assay (thioflavin T fluorescence)
Assay type: biochemical
Parameters: Natural β-AP (β-AP1-40) was obtained commercially from Bachem (Torrance, Calif.); purchased Bachem (Torrance, Calif.)
Details: Table V; 25 mole % inhibitor
Procedure: The seeded extension assay can be employed to measure the rate of Aβ fiber formed in a solution of Aβ monomer following addition of polymeric Aβ fiber "seed". The ability of test compounds to prevent further deposition of monomeric Aβ to previously deposited amyloid is determined using a direct indicator of β-sheet formation using fluorescence. […]
Numbered stars: 1 amine (or outer) side, 2 acyl side, 3 side chain; on linkers, the order of the positions; unused ones are H or OH. Square brackets hold non-standard residues; d marks the D form. Peptide text beside a SMILES is read from it. * marks the point of attachment. Cholyl = C[C@H](CCC(=O)*)[C@H]1CC[C@H]2[C@@H]3[C@H](O)C[C@@H]4C[C@H](O)CC[C@]4(C)[C@H]3C[C@H](O)[C@]12C; X2 = O=C(C1(O)C[C@H](O)[C@@H](N[*:1])[C@H]([C@H](O)[C@H](O)CO)O1)[*:2]
Please provide measured % Iext'n (percent reduction of thioflavin-T fluorescence) for the entries that follow.

Enquiry: Value lookup for % Iext'n (percent reduction of thioflavin-T fluorescence); key = CC(=O)N[C@H]1[C@H]([C@H](O)[C@H](O)CO)OC(O)(C(=O)N[C@@H](CCCCN)C(=O)N[C@@H](CC(C)C)C(=O)N[C@H](C(=O)N[C@@H](Cc2ccccc2)C(=O)N[C@@H](Cc2ccccc2)C(=O)O)C(C)C)C[C@@H]1O (stereo partly shown) [PPI-373] (Ac-[X2]KLVFF-OH)
Return: 8%

Enquiry: Value lookup for % Iext'n (percent reduction of thioflavin-T fluorescence); key = `CC(C)[C@H](NC(=O)CC[C@@H](C)[C@H]1CC[C@H]2[C@@H]3[C@H](O)C[C@@H]4C[C@H](O)CC[C@]4(C)[C@H]3C[C@H](O)[C@]12C)C(=O)N[C@@H](Cc1ccccc1)C(=O)N[C@@H](Cc1ccccc1)C(=O)O`
Return: 0%

Enquiry: Value lookup for % Iext'n (percent reduction of thioflavin-T fluorescence); key = `CC(C)C[C@H](NC(=O)[C@H](CCCCN)NC(=O)CCCC[C@@H]1SC[C@@H]2NC(=N)N[C@@H]21)C(=O)N[C@H](C(=O)N[C@@H](Cc1ccccc1)C(=O)N[C@@H](Cc1ccccc1)C(=O)O)C(C)C`
Return: 0%

Enquiry: Value lookup for % Iext'n (percent reduction of thioflavin-T fluorescence); key = CC(C)C[C@H](NC(=O)CC[C@@H](C)[C@H]1CC[C@H]2[C@@H]3[C@H](O)C[C@@H]4C[C@H](O)CC[C@]4(C)[C@H]3C[C@H](O)[C@]12C)C(=O)N[C@@H](C)C(=O)N[C@@H](Cc1ccccc1)C(=O)N[C@@H](Cc1ccccc1)C(=O)N[C@@H](C)C(=O)O [PPI-389] (Cholyl-LAFFA-OH)
Return: 66%
